Examples of sequences with documented apparent KD of MS2 coat protein follow.
Test system: MS2 coat protein
run_description: apparent KD of MS2 coat protein; higher = weaker reporter binding
recorded_conditions: Eterna round: R107; input ligand: arginine 13.2 mM
measurement_kind: apparent KD of MS2 coat protein

- sequence: "UGUAAAAUAACAGAUACCAGCGUGUUAUAAAACAUGAGGAUCACCCAUGUAGUGAUCAAGCGCCCUUGGCAGCUGGUAUUUUAUG [7.D]"
  result_value: "105 nM"
- sequence: "ACGUAAUGCAGAAGGAGCGUCUUUUUAAAACAUGAGGAUCACCCAUGUAAUAUUUAUGGGAGACAGGUAGGUCGCUGAAGUACGA [JR_SSArginiB_Sub006]"
  result_value: "30.3 nM"
- sequence: "AUGCAGAGCACGGCCGCCACUCCAUGUAUACAUGAGGAUCACCCAUGUAAUUUGUAUUUUUUAUAGAGGACCGGGUGAAAUGCAA [JR_SSTryptoB_Sub011]"
  result_value: "41.4 nM"
- sequence: "UACGCUAGGGCGGCCGCCACUCGGACAUGAGGAUCACCCAUGUCGAUUAAUUGAAGGACAUGAAUGAGGACCGGGCUAAGCUAGG [Same State - Tryptophan B / B]"
  result_value: "20.8 nM"
- sequence: "GGCAGUCAUAGCAGGGCAAAUAUACUCGAAGGAGCGUCAUAGUAGGCAGGUAGGUCGCGAGACAUGAGGAUCACCCAUGUAGAGA [uuumullin]"
  result_value: "26.1 nM"
- sequence: "GAACAUAUGGAUACUAUUAUGAGCACAGAAGGAGCGAGCGGAAGCUCAGGUAGGUCGCUGGGUAACAUGAGGAUCACCCAUGUUG [XArg-A sub1]"
  result_value: "18.7 nM"
- sequence: "AGAUCUUUCGAAAGAAGGAUCUUGUCUGAUACCAGAGACGAAAGUCUCCCUUGGCAGCAGUGCCAACAUGAGGAUCACCCAUGUA [Theophylline A 12]"
  result_value: "22 nM"
- sequence: "CCGCCCUACCGCGAUACCAGUACGGCAGUUAACAUGAGGAUCACCCAUGUGCAAACAUAAUACCCUUGGCAGCGCCUGAAUCCAU [theeternabot_sameState_MS2_Theo_B_12]"
  result_value: "15.7 nM"
- sequence: "UGAUCCUACAGAGAUACCAGUGCCGCUGAGUGACCAGACACAUGAGGAUCACCCAUGUAACACCCUUGGCAGCUCAACUAGAGGG [Same State Theophylline B GF19]"
  result_value: "12.8 nM"
- sequence: "AAGUGGCACGGAAGGAGCGAGUUUGCCUAUUACAUGAGGAUCACCCAUGUGGGUAAUGGGACUCAGGUAGGUCGCCGUUGUCACU [Same State Arginine B GF 26]"
  result_value: "29.5 nM"
- sequence: "AAAACACAUGAGGAUCACCCAUGUCGUGAUACCAGUCAACAUGAGGACCCUUGGCAGCAUAAAAUGGGUAACAUGAGGAUAACCC [AstrosEXyTheA#3]"
  result_value: "75.4 nM"
- sequence: "AUGUUGGUCUGAAGGAGCGCGAUAACAUGAGGAUCACCCAUGUUAAAUGGUACAUGAUACUCGCAGGUAGGUCGCAGUACGACAA [Same State Arginine B GF 13]"
  result_value: "18.6 nM"

Cited source for all entries: the supplement of paper PMC9170038
